Catalogue of compounds with associated MIC Enterococcus faecium (GC 4557)
system: Enterococcus sp.; assay: in vitro antibacterial evaluation, MIC by broth dilution; assay type: cell-based; settings: broth dilution, 18 hours at 35° C.; strain GC 4557
Give the number; µg/mL is assumed, so skip it.

CC(c1ccccc1)C1NC(=O)CNC(=O)C(CO)NC(=O)C(CC2CNC(=N)N2C2OC(CO)C(O)C(O)C2O)NC(=O)C(CC2CNC(=N)N2)NC(=O)C(Cc2ccc(OC3OC(CO)C(OC4OC(CO)C(OCc5ccc(OCc6ccccc6)cc5)C(O)C4O)C(O)C3O)cc2)NC1=O (stereo not shown) [Example 246a]	2
CCCCCCCC1OCC2OC(OC3C(CO)OC(Oc4ccc(CC5NC(=O)C(C(C)c6ccccc6)NC(=O)CNC(=O)C(CO)NC(=O)C(C(O)C6CNC(=N)N6C6OC(CO)C(O)C(O)C6O)NC(=O)C(C(O)C6CNC(=N)N6)NC5=O)cc4)C(O)C3O)C(O)C(O)C2O1 (stereo not shown)	1

// switching to the query compound
Can you look up the measured MIC Enterococcus faecium (GC 4557) of CC(c1ccccc1)C1NC(=O)CNC(=O)C(CO)NC(=O)C(C(O)C2CNC(=N)N2C2OC(CO)C(O)C(O)C2O)NC(=O)C(C(O)C2CNC(=N)N2)NC(=O)C(Cc2ccc(OC3OC(CO)C(OC4OC(COC(=O)OCc5ccccc5)C(O)C(O)C4O)C(O)C3O)cc2)NC1=O (stereo not shown) [Example 101a] for me?
2
